- system-tested: matriptase (Homo sapiens, UniProt Q9Y5Y6)
- Construct: purchased R&D Systems 3946-SEB
- Sequence (Q9Y5Y6 615-855 limits assumed): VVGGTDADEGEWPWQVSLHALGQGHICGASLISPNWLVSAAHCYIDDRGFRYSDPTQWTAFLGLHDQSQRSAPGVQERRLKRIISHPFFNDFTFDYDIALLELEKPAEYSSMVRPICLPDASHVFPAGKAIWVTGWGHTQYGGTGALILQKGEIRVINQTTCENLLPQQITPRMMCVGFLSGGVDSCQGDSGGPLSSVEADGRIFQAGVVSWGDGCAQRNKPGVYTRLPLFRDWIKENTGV
- experimental-protocol: FRET peptide cleavage efficiency with matriptase
- Format: biochemical
- setup-conditions: pH 6.5; t = 15 min (Table 7)
Square brackets hold non-standard residues; d marks the D form. Ends that are not written are not given here. Tyr(3-NO2) = N[C@@H](Cc1ccc(O)c([N+](=O)[O-])c1)C(=O)O; 2Abz = Nc1ccccc1C(=O)O
Give % cleavage Matriptase t = 15 min for every item shown.
# output: bare number, implied unit %

Quickly give me recorded % cleavage Matriptase t = 15 min for SGRVLRKAGPQPLVD ([2Abz]SGRVLRKAGPQPLVD[Tyr(3-NO2)]-NH2) [LNK003]
48

Give reported % cleavage Matriptase t = 15 min value for RQRRSPLGLAG ([2Abz]RQRRSPLGLAG[Tyr(3-NO2)]-NH2) [LNK010]
90

# return recorded % cleavage Matriptase t = 15 min for input SGRVLRKAGPANLVG ([2Abz]SGRVLRKAGPANLVG[Tyr(3-NO2)]-NH2) [LNK014]
70

Give reported % cleavage Matriptase t = 15 min value for SSRGRRGPYMLQG ([2Abz]SSRGRRGPYMLQG[Tyr(3-NO2)]-NH2) [LNK021]
100

Read the entry SGRVANLVG (not fully specified (N-terminus, C-terminus)) [LNK017] and write its reported % cleavage Matriptase t = 15 min.
5

Query % cleavage Matriptase t = 15 min for SSRGPYMLQG ([2Abz]SSRGPYMLQG[Tyr(3-NO2)]-NH2) [LNK022]
0

Provide measured % cleavage Matriptase t = 15 min value, entry: SGRVAGLVG ([2Abz]SGRVAGLVG[Tyr(3-NO2)]-NH2) [LNK016]
8
